All values here come from patent US20260306491A1.

test: Solubility screening of malonate salt of Compound I in various solvents at RT; format: physicochemical; conditions: organic solvent or mixture; CHCl3, RT
Structures can show the parent of a compound that is named as a salt.
RESULT_TYPE: solubility

Req: Report solubility for C=CC(=O)Nc1cc(Nc2cc(N3OCC[C@@H]3c3cc(F)cc(F)c3)ncn2)c(OC)cc1N1CCC(N2CCN(C3CC3)CC2)CC1 [malonate salt of Compound I]
Resp: > 40 mg/mL

----------
molecular target: EGFR_G719C (Homo sapiens, UniProt P00533, G719C); assay: EGFR kinase activity (AQT0794 peptide, Sox fluorescence); conditions: 1 mM ATP, 5.0 nM enzyme, room temperature
Sequence (P00533 25-1210 G719C): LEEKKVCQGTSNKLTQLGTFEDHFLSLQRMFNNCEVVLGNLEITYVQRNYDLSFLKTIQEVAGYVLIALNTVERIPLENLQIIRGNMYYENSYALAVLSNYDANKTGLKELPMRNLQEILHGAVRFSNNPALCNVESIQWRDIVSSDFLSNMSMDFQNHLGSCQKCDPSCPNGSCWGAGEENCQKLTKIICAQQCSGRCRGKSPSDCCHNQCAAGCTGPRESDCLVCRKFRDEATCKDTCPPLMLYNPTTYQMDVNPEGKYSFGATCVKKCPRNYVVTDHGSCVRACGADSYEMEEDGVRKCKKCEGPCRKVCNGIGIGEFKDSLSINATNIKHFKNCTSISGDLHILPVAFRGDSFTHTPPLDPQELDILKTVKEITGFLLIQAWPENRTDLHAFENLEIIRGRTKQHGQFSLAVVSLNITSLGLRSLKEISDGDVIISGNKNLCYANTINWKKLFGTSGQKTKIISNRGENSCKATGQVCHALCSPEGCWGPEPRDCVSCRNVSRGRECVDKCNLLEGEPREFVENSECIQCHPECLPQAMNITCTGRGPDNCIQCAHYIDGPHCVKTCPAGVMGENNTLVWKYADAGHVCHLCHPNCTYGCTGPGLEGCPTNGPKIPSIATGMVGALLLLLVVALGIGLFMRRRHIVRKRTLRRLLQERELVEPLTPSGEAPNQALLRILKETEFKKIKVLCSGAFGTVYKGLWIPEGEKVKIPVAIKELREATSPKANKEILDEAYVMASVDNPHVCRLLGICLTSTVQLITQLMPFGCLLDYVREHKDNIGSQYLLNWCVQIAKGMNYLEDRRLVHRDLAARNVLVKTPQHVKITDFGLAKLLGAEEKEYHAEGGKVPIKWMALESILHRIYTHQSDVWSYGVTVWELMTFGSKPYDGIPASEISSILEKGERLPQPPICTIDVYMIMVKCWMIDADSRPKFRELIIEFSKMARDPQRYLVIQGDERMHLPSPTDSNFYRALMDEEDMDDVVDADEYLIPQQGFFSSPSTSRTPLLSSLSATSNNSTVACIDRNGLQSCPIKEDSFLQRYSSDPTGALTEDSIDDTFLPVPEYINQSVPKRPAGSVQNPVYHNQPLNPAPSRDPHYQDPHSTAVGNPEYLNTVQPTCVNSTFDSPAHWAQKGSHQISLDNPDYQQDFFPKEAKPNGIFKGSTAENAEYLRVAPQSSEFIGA
RESULT_TYPE: pIC50
A value of pIC50 is the negative decimal logarithm of a concentration given in moles per litre.

Req: Report pIC50 for `C=CC(=O)Nc1cc(Nc2cc(N3OCC[C@@H]3c3cc(F)cc(F)c3)ncn2)c(OC)cc1N1CCC(N2CCN(C3CC3)CC2)CC1`
Resp: 9.22
